Reference for the values: patent US7368457B2

study_system: gamma secretase (Homo sapiens, UniProt P49768)
Construct: endogenous in cells; host or cells: Membranes of 293 T-REx cells, clone pTRE.15; The enzyme is endogenous; only the substrate SPC99-Lon is transfected
procedure_summary: Gamma secretase activity in membranes of 293 cells expressing C99 (SPC99-Lon), Aβ 40 / Aβ 42 ECL immunoassay
Assay type: biochemical
pIC50: −log10 of the molar value.
Collected pIC50 values appear next to each entry.
observation_type: pIC50

> print(dat)
                                   molecule  recorded.measurement
1  O=C(O[C@@H]1CCC2CCCC1N2S(=O)(=O)c1ccc(Cl)cc1)N1CCC(N2CCCCC2)CC1 (some centres unmarked)          5.00 to 6.00
2  O=C(O[C@H]1CCC2CCCC1N2S(=O)(=O)c1ccc(Cl)cc1)N1CCC(N2CCCCC2)CC1 (some centres unmarked)                 ~7.80

====

Collected pIC50 values appear next to each entry.
study_system: gamma secretase (Homo sapiens, UniProt P49768)
Construct: endogenous in cells; host or cells: Membranes of 293 T-REx cells, clone pTRE.15; The enzyme is endogenous; only the substrate SPC99-Lon is transfected
procedure_summary: Gamma secretase activity in membranes of 293 cells expressing C99 (SPC99-Lon), Aβ 40 / Aβ 42 ECL immunoassay
Assay type: biochemical
condition_details: gamma secretase membrane assay; ranges given as 'about 0.1 to about 1.0 μM' and 'about 1 to about 10 μM'; read-out: IC50
pIC50: −log10 of the molar value.
observation_type: pIC50

> print(dat)
                                    compound                              study.system  recorded.measurement
 1  CC(C)N1CCN(C(=O)OC2C[C@H]3CCC2N3S(=O)(=O)c2ccc(Cl)cc2)CC1 (some centres unmarked)  gamma secretase (Homo sapiens, UniProt P49768)          5.00 to 6.00
 2  O=C(O[C@H]1CCC2CCCC1N2S(=O)(=O)c1ccc(Cl)cc1)N1CCN(c2ccccc2)CC1 (some centres unmarked)  gamma secretase (Homo sapiens, UniProt P49768)          6.00 to 7.00
 3  O=C(O[C@H]1CCC2CCCC1N2S(=O)(=O)c1ccc(Cl)cc1)N1CCN(CCCO)CC1 (some centres unmarked)  gamma secretase (Homo sapiens, UniProt P49768)          6.00 to 7.00
 4  CN1CCN(C(=O)O[C@H]2CCC3CCCC2N3S(=O)(=O)c2ccc(Cl)cc2)CC1 (some centres unmarked)  gamma secretase (Homo sapiens, UniProt P49768)          6.00 to 7.00
 5  O=C(O[C@H]1CCC2CCCC1N2S(=O)(=O)c1ccc(Cl)cc1)N1CCC[C@H]1CO (some centres unmarked)  gamma secretase (Homo sapiens, UniProt P49768)          6.00 to 7.00
 6  O=C(O[C@H]1CCC2CCCC1N2S(=O)(=O)c1ccc(Cl)cc1)N1CCC(O)(c2ccc(Cl)cc2)CC1 (some centres unmarked)  gamma secretase (Homo sapiens, UniProt P49768)          6.00 to 7.00
 7  CCN1CCN(C(=O)OC2C[C@H]3CCC2N3S(=O)(=O)c2ccc(Cl)cc2)CC1 (some centres unmarked)  gamma secretase (Homo sapiens, UniProt P49768)          5.00 to 6.00
 8  CCN(CC)C(=O)C1CCCN(C(=O)O[C@H]2CCC3CCCC2N3S(=O)(=O)c2ccc(Cl)cc2)C1 (some centres unmarked)  gamma secretase (Homo sapiens, UniProt P49768)          6.00 to 7.00
 9  O=C(OC1CC2CCC1N2S(=O)(=O)c1ccc(Cl)cc1)N1CCC(N2CCCCC2)CC1 (centres unmarked)  gamma secretase (Homo sapiens, UniProt P49768)          5.00 to 6.00
10  CCN(Cc1ccncc1)C(=O)O[C@H]1CCC2CCCC1N2S(=O)(=O)c1ccc(Cl)cc1 (some centres unmarked)  gamma secretase (Homo sapiens, UniProt P49768)          6.00 to 7.00
11  O=C(OC1C[C@H]2CCC1N2S(=O)(=O)c1ccc(Cl)cc1)N1CCN(C2CCCCC2)CC1 (some centres unmarked)  gamma secretase (Homo sapiens, UniProt P49768)          5.00 to 6.00
12  O=C(O[C@H]1CCC2CCC1N2S(=O)(=O)c1ccc(Cl)cc1)N1CCC(N2CCCCC2)CC1 (some centres unmarked)  gamma secretase (Homo sapiens, UniProt P49768)          6.00 to 7.00
13  O=C(O[C@H]1CCC2CCCC1N2S(=O)(=O)c1ccc(Cl)cc1)N1CCN(CC2CC2)CC1 (some centres unmarked)  gamma secretase (Homo sapiens, UniProt P49768)          6.00 to 7.00
14  CC(C)N1CCN(C(=O)O[C@H]2CCC3CCCC2N3S(=O)(=O)c2ccc(Cl)cc2)CC1 (some centres unmarked)  gamma secretase (Homo sapiens, UniProt P49768)          6.00 to 7.00
15  O=C(O[C@@H]1C=CC2CCCC1N2S(=O)(=O)c1ccc(Cl)cc1)N1CCC(N2CCCCC2)CC1 (some centres unmarked)  gamma secretase (Homo sapiens, UniProt P49768)          6.00 to 7.00
16  O=C(O[C@H]1CCC2CCCC1N2S(=O)(=O)c1ccc(Cl)cc1)N1CCN(CCO)CC1 (some centres unmarked)  gamma secretase (Homo sapiens, UniProt P49768)          6.00 to 7.00
17  COC(=O)C1CCN(C(=O)O[C@H]2CCC3CCCC2N3S(=O)(=O)c2ccc(Cl)cc2)CC1 (some centres unmarked)  gamma secretase (Homo sapiens, UniProt P49768)          6.00 to 7.00
